# inhibition at 0.1 µM values compiled below
biological target: KAT6A (Homo sapiens); construct: These studies were conducted in the HCC1954 cell line which harbors a KAT6A copy number amplification; endogenous in cells; host or cells: HCC1954; assay: Western Blot KAT6A Degradation Assessment; type: cell-based; conditions: 0.1 μM compound, 24 hours of treatment, HCC1954 cell line, KAT6A normalized to GAPDH and DMSO
Sequence (Q92794 whole entry): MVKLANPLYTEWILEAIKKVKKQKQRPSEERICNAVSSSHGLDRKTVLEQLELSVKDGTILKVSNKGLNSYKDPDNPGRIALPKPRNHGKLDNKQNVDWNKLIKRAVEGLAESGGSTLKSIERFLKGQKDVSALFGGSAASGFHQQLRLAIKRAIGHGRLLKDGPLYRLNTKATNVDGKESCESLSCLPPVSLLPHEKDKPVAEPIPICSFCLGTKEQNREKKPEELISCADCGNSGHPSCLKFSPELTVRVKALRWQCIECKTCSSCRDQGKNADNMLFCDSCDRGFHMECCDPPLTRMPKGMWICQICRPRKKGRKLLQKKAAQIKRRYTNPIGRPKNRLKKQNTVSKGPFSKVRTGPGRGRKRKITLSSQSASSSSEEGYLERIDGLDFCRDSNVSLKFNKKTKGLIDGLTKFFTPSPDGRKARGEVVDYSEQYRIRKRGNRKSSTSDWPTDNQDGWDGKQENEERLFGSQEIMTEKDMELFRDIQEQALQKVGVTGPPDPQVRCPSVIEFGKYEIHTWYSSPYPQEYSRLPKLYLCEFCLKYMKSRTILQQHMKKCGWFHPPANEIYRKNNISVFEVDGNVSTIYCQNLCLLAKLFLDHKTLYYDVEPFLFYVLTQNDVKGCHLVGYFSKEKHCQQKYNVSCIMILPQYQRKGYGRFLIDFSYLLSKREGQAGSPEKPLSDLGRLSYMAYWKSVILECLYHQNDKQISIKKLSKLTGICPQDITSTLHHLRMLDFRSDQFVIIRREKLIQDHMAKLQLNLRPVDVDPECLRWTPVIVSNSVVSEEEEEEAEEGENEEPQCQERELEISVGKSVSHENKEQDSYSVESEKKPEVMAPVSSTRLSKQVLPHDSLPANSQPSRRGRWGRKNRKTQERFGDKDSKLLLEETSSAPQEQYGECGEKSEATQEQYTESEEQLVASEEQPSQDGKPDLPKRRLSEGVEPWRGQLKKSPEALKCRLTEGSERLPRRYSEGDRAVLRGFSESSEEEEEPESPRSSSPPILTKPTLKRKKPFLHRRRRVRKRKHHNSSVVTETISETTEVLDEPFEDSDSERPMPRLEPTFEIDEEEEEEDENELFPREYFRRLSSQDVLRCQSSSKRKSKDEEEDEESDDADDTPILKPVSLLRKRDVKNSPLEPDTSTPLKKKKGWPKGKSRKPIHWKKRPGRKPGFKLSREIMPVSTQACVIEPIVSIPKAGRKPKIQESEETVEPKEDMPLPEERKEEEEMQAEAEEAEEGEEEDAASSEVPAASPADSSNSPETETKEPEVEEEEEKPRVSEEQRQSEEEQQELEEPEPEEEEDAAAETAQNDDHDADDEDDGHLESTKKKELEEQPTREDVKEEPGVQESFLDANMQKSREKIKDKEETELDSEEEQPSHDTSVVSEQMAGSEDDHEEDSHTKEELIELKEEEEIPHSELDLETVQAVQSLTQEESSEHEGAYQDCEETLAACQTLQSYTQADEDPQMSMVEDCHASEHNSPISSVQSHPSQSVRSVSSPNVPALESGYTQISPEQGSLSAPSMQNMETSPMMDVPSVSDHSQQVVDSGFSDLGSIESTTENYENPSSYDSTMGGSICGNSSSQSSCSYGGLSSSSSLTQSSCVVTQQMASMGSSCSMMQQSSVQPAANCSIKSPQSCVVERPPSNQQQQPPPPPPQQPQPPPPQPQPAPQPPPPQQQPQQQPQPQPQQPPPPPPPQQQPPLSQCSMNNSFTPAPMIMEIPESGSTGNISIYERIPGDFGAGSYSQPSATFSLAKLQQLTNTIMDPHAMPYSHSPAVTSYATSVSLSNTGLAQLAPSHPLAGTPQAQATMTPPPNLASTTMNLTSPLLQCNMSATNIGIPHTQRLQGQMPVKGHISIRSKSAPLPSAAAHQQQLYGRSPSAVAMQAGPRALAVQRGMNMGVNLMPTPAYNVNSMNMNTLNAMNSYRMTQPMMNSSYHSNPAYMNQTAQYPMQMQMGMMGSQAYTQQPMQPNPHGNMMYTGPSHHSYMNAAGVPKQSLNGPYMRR

[[record]]
compound = "COc1cc(Cn2cccn2)cc2onc(NS(=O)(=O)c3cccc(N4CCN(CC5CCN(c6ccc7c(c6)C(=O)N(C6CCC(=O)NC6=O)C7=O)C5)CC4)c3)c12 (stereo not drawn)"
measured_metric = "inhibition at 0.1 µM"
reported_result = "50 to 75%"

[[record]]
compound = "COc1cc(Cn2cccn2)cc2onc(NS(=O)(=O)c3cccc(N4CCN(CCC5CCN(c6ccc7c(c6)C(=O)N(C6CCC(=O)NC6=O)C7=O)C5)CC4)c3)c12 (stereo not drawn)"
measured_metric = "inhibition at 0.1 µM"
reported_result = "0 to 50%"


Now for a further compound.
Form: compound = COc1cc(Cn2cccn2)cc2onc(NS(=O)(=O)c3cccc(N4CCN(CCC5CCN(c6ccc7c(c6)C(=O)N(C6CCC(=O)NC6=O)C7=O)CC5)CC4)c3)c12 (stereo not drawn) ; inhibition at 0.1 µM = 0 to 50%
